These entries and their values trace back to patent US8193239B2.

TGT: Recombinant Human (rh) DPP1 (Homo sapiens)
PROTOCOL DESCRIPTION: Fluorescence Assay for Recombinant Human (rh) DPP1
Format: biochemical
PARTICULARS: rhDPP1, substrate H-Gly-Arg-AMC, pH5.0, 22° C., pre-incubated 30-60 min; read-out: DPP1 activity, pIC50 (converted)
Where a name gives a salt, the structure may show the parent alone.
MEASURED ATTRIBUTE: IC50 (nM)

Below, each entry is followed by its recorded IC50 result.
> print(dat)
                                   compound  unit.tag  recorded.measurement
1  CN1CCN(S(=O)(=O)c2ccc(-c3ccc(C[C@@H](C#N)NC(=O)C4(N)CCOCC4)cc3)cc2)CC1        nM                 0.631
2  CCS(=O)(=O)c1ccc(-c2ccc(C[C@@H](C#N)NC(=O)C3(N)CCOCC3)cc2)cc1        nM                 0.794
3  CS(=O)(=O)c1cccc(-c2ccc(C[C@@H](C#N)NC(=O)C3(N)CCOCC3)cc2)c1 [Example 23, trifluoroacetic acid salt]        nM                 0.631
4  N#C[C@H](Cc1ccc(-c2ccc(F)c(F)c2)cc1)NC(=O)C1(N)CCOCC1 [Example 13, trifluoroacetic acid salt]        nM                 0.316
5  CS(=O)(=O)Oc1cccc(-c2ccc(C[C@@H](C#N)NC(=O)C3(N)CCOCC3)cc2)c1        nM                 0.501

A: Cc1ccc(-c2ccc(C[C@@H](C#N)NC(=O)C3(N)CCOCC3)cc2)cc1C#N [Example 18, trifluoroacetic acid salt]
B: N#C[C@H](Cc1ccc(-c2ccc3c(c2)CS(=O)(=O)C3)cc1)NC(=O)C1(N)CCOCC1
C: CN1C(=O)CSc2cc(-c3ccc(C[C@@H](C#N)NC(=O)C4(N)CCOCC4)cc3)ccc21
D: CN1Cc2cc(-c3ccc(C[C@@H](C#N)NC(=O)C4(N)CCOCC4)cc3)cnc2C1=O
[ask] Sort by IC50, descending. Response format: the labels, sorted as the prompt asks.
[reply] D, B, A, C

====

TGT: Recombinant Human (rh) DPP1 (Homo sapiens, UniProt P53634)
Sequence (P53634 231-394 limits assumed): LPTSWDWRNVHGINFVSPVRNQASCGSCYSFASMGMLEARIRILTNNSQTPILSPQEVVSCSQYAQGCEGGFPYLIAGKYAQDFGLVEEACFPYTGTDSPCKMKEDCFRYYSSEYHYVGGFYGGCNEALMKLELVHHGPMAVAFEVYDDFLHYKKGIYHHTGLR
Sequence (P53634 25-134 limits assumed): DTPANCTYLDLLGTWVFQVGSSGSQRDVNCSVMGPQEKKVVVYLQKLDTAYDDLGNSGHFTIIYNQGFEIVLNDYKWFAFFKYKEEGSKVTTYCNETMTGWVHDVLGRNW
Sequence (P53634 395-463 limits assumed): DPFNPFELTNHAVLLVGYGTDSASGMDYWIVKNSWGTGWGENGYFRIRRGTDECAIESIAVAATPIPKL
PROTOCOL DESCRIPTION: Fluorescence Assay for Recombinant Human (rh) DPP1
Type: biochemical
PARTICULARS: rhDPP1, substrate H-Gly-Arg-AMC, pH5.0, 22° C., pre-incubated 30-60 min; read-out: DPP1 activity, pIC50 (converted)
Where a name gives a salt, the structure may show the parent alone.
MEASURED ATTRIBUTE: IC50 (nM)

Below, each entry is followed by its recorded IC50 result.
> print(dat)
                                   compound  unit.tag  recorded.measurement
1  N#C[C@H](Cc1ccc(-c2ccc3c(c2)CNC3=O)cc1)NC(=O)C1(N)CCOCC1        nM                 0.126
2  COCCn1c(=O)oc2ccc(-c3ccc(C[C@@H](C#N)NC(=O)C4(N)CCOCC4)cc3)cc21 [Example 24, trifluoroacetic acid salt]        nM                   0.2

P: CS(=O)(=O)Oc1ccc(-c2ccc(C[C@@H](C#N)NC(=O)C3(N)CCOCC3)cc2)cc1 [Example 6, methanesulfonate trifluoroacetic acid …]
Q: CN1C(=O)Cc2ccc(-c3ccc(C[C@@H](C#N)NC(=O)C4(N)CCOCC4)cc3)cc21
R: COc1ccc(-c2ccc(C[C@@H](C#N)NC(=O)C3(N)CCOCC3)cc2)cc1
S: CN1Cc2cc(-c3ccc(C[C@@H](C#N)NC(=O)C4(N)CCOCC4)cc3)ccc2C1=O
[ask] Sort by IC50, descending. Response format: the labels, sorted as the prompt asks.
[reply] S, R, P, Q

====

TGT: Recombinant Human (rh) DPP1 (Homo sapiens)
PROTOCOL DESCRIPTION: Fluorescence Assay for Recombinant Human (rh) DPP1
Format: biochemical
PARTICULARS: rhDPP1, substrate H-Gly-Arg-AMC, pH5.0, 22° C., pre-incubated 30-60 min; read-out: DPP1 activity, pIC50 (converted)
Structures can show the parent of a compound that is named as a salt.
MEASURED ATTRIBUTE: IC50 (nM)

Below, each entry is followed by its recorded IC50 result.
> print(dat)
                                   compound  measured.attribute  recorded.measurement
1  CC(C)S(=O)(=O)c1ccc(-c2ccc(C[C@@H](C#N)NC(=O)C3(N)CCOCC3)cc2)cc1 [Example 5]                IC50                     1
2  N#C[C@H](Cc1ccc(-c2ccc(C(N)=O)c(F)c2)cc1)NC(=O)C1(N)CCOCC1 [Example 25]                IC50                  1.26

I: CN1Cc2cc(-c3ccc(C[C@@H](C#N)NC(=O)C4(N)CCOCC4)cc3)ccc2S1(=O)=O [Example 16, trifluoroacetic acid salt]
II: Cn1c(=O)oc2ccc(-c3ccc(C[C@@H](C#N)NC(=O)C4(N)CCOCC4)cc3)cc21 [Example 17]
[ask] Lower value of IC50 belongs to which: I or II ? Identify your pick by its label.
[reply] II

====

TGT: Recombinant Human (rh) DPP1 (Homo sapiens, UniProt P53634)
PROTOCOL DESCRIPTION: Fluorescence Assay for Recombinant Human (rh) DPP1
Format: biochemical
PARTICULARS: rhDPP1, substrate H-Gly-Arg-AMC, pH5.0, 22° C., pre-incubated 30-60 min; read-out: DPP1 activity, pIC50 (converted)
Counter-ions that a name gives are not always drawn.
MEASURED ATTRIBUTE: IC50 (nM)

Below, each entry is followed by its recorded IC50 result.
> print(dat)
                                   molecule  recorded.measurement
1  N#C[C@H](Cc1ccc(-c2ccc(S(=O)(=O)N3CCC3)cc2)cc1)NC(=O)C1(N)CCOCC1 [Example 7, trifluoroacetic acid salt]                 0.631
2  N#C[C@H](Cc1ccc(-c2ccc3oc(=O)[nH]c3c2)cc1)NC(=O)C1(N)CCOCC1 [Example 33]                 0.398
3  N#Cc1cccc(-c2ccc(C[C@@H](C#N)NC(=O)C3(N)CCOCC3)cc2)c1 [Example 8]                 0.794
4  COc1cc(-c2ccc(C[C@@H](C#N)NC(=O)C3(N)CCOCC3)cc2)ccn1 [Example 26]                  1.26

A: CN1Cc2ccc(-c3ccc(C[C@@H](C#N)NC(=O)C4(N)CCOCC4)cc3)cc2C1=O [Example 30, trifluoroacetic acid salt]
B: N#C[C@H](Cc1ccc(-c2ccc(F)cc2)cc1)NC(=O)C1(N)CCOCC1 [Example 4]
C: N#C[C@H](Cc1ccc(-c2ccc(C(F)(F)F)cc2)cc1)NC(=O)C1(N)CCOCC1 [Example 1]
[ask] Sort by IC50, descending. Response format: the labels, sorted as the prompt asks.
[reply] A, C, B
(A: 5.01 nM, C: 0.631 nM, B: 0.398 nM)

====

// reported IC50 for each item listed
TGT: Recombinant Human (rh) DPP1 (Homo sapiens)
PROTOCOL DESCRIPTION: Fluorescence Assay for Recombinant Human (rh) DPP1
Assay type: biochemical
PARTICULARS: rhDPP1, substrate H-Gly-Arg-AMC, pH5.0, 22° C., pre-incubated 30-60 min; read-out: DPP1 activity, pIC50 (converted)
Method: Fluorescence Assay for Recombinant Human (rh) DPP1 The activity of DPP1 was determined by measuring the enzymatic release of aminomethyl coumarin (AMC) from the peptide substrate (H-Gly-Arg-AMC), which leads to an increase in fluorescence intensity at λex=350 nm and λem=450 nm. The assay was carried out in black 384 well plates in a final volume of 50 μl at 22° C. […]
Counter-ions that a name gives are not always drawn.

Below, each entry is followed by its recorded IC50 result.
> print(dat)
                                   molecule  measured.attribute  recorded.measurement
1  Cc1cc(-c2ccc(C[C@@H](C#N)NC(=O)C3(N)CCOCC3)cc2)ccc1C#N [Example 19, trifluoroacetic acid salt]                IC50            < 0.316 nM
2  CN1C(=O)COc2ccc(-c3ccc(C[C@@H](C#N)NC(=O)C4(N)CCOCC4)cc3)cc21 [Example 10, trifluoroacetic acid salt]                IC50            < 0.316 nM
3  COCCn1c(=O)sc2ccc(-c3ccc(C[C@@H](C#N)NC(=O)C4(N)CCOCC4)cc3)cc21 [Example 9, trifluoroacetic acid salt]                IC50            < 0.316 nM
4  N#C[C@H](Cc1ccc(-c2ccc(S(=O)(=O)N3CCOCC3)cc2)cc1)NC(=O)C1(N)CCOCC1 [Example 27, trifluoroacetic acid salt]                IC50               1.58 nM

We now examine a further molecule.
[ask] Reported IC50, molecule COCCCn1c(=O)oc2ccc(-c3ccc(C[C@@H](C#N)NC(=O)C4(N)CCOCC4)cc3)cc21 [Example 11, trifluoroacetic acid salt] : ____
[reply] < 0.316 nM
